# MEASURED_ON: Calmodulin-1 (Homo sapiens) (UniProt P0DP23)
# TEST_DESCRIPTION: calcium-bound CALM1 binders on microarrays, profiling panel, artefact control for SMM control-protein annotation, biochemical, small-molecule microarray, Cy5-labelled CALM1, plus calcium (AID 1112);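 also: score merges spot fluorescence with signal to noise from triplicate slides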
# MEASUREMENT_PARAMETERS: Cy5-CALM1 binding fluorescence, higher = more signal
Assign fulfilled whenever composite z-score does not fall below 0.5; assign not fulfilled whenever it does.

Prompt: Can `C=CCN1C(=O)[C@@]2(CC=C)N=C(c3ccc(OCCCO)cc3)O[C@H]2c2ccccc21` be said to have composite z-score at or above 0.5?
Response: not fulfilled

Prompt: Can `Cc1nc2cc(Br)ccc2c(=O)o1` be said to have composite z-score at or above 0.5?
Response: not fulfilled

Prompt: Can `CCCCCCc1nc(-c2ccc(OC)nc2)cc2c1[Si](C(C)C)(C(C)C)O[C@H]2c1ccccc1` be said to have composite z-score at or above 0.5?
Response: not fulfilled

Prompt: Can CCCc1cc2c(n1Cc1cc(F)cc(F)c1)C(C)C1CN(C(=O)c3ccccc3)C(C)(C(=O)OC)C21 (stereo unspecified) be said to have composite z-score at or above 0.5?
Response: fulfilled

Prompt: Can `COCCOC(=O)N1C(=O)[C@@]2(c3cc(C#CCC(C(=O)OC)C(=O)OC)ccc31)[C@H](C(=O)Nc1nc3ccccc3s1)[C@H]1C(=O)O[C@H](c3ccccc3)[C@H](c3ccccc3)N1[C@@H]2c1ccccc1OCCO` be said to have composite z-score at or above 0.5?
Response: fulfilled

Prompt: Can `CC(C)C(=C=CC[C@H](O)c1ccc(OCCO)cc1)CCO` be said to have composite z-score at or above 0.5?
Response: not fulfilled

Prompt: Can `COc1ccc(CCNC(=O)[C@@H]2c3ccccc3C(=O)N(Cc3ccccc3Cl)[C@H]2c2ccc(CO)cc2)cc1` be said to have composite z-score at or above 0.5?
Response: not fulfilled

Prompt: Can `O=C(CS)NCCCCCCNC(=O)[C@@H]1C[C@@H]2C(=O)N[C@@H](Cc3ccccc3)C(=O)N2[C@@H]1c1cccc(OCCO)c1` be said to have composite z-score at or above 0.5?
Response: not fulfilled

Prompt: Can `CCOC(=O)C[C@H]1[C@H](OC(=O)c2ccc(C(=O)c3ccccc3)cc2)[C@@H](NC(=O)c2ccc3ccccc3n2)c2cc(OCCCO)ccc2N1C(=O)c1ccccc1` be said to have composite z-score at or above 0.5?
Response: not fulfilled

###

Can you tell me composite z-score for the items I'm about to list?
# MEASURED_ON: Epidermal growth factor receptor (Homo sapiens)
# TEST_DESCRIPTION: EGFR binders on small-molecule microarrays, primary screen, biochemical, small-molecule microarray, 635 nm fluorescence (AID 1104);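 also: score merges 667 nm emission intensity with spot signal to noise over triplicate slides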
# MEASUREMENT_PARAMETERS: EGFR binding, higher = more signal
Could you keep your reply to the number by itself?

Prompt: Fill in composite z-score for record C=CCC(OC(C)=O)[C@@H]1[C@@H](N(Cc2ccc(-c3ccccc3)cc2)C(=O)c2cccc3ccccc23)c2cc(OCCCO)ccc2N1C(=O)c1ccc(-c2ccccc2)cc1 (stereo partly specified)
Response: -0.192

Prompt: Fill in composite z-score for record `O=C1c2ccccc2[C@](Cc2ccccc2I)(C(=O)NCC(F)(F)F)[C@H](c2ccc(CO)cc2)N1Cc1ccccc1Cl`
Response: 0.0527

Prompt: Fill in composite z-score for record `C=C(CC1([C@@H](NP(=O)(c2ccccc2)c2ccccc2)[C@H]2C[C@@H]2CCCC)CC1)c1ccccc1`
Response: 0.243

Prompt: Fill in composite z-score for record `C[N+](C)(C)CCCCCCNC(=O)[C@@H]1C[C@@H]2C(=O)N[C@@H](Cc3ccccc3)C(=O)N2[C@@H]1c1cccc(OCCO)c1`
Response: -0.0586

Prompt: Fill in composite z-score for record `COc1ccc(/C=C/C=O)cc1`
Response: -0.0607

Prompt: Fill in composite z-score for record `COCCOC(=O)N1C(=O)[C@@]2(c3ccccc31)[C@H](C(=O)N1CCc3cc(OC)c(OC)cc3C1)[C@H]1C(=O)O[C@H](c3ccccc3)[C@H](c3ccccc3)N1[C@@H]2c1ccc(OCCO)cc1`
Response: 0.565

###

# TEST_DESCRIPTION: CREB reporter modulators without forskolin, primary screen, cell-based, PC12, CRE-LacZ reporter, unstimulated (AID 1145)
# MEASUREMENT_PARAMETERS: no forskolin, luminescence, 4.5 h, higher = more signal, called active from +8 up or from −8 down
READOUT: z-score
Could you keep your reply to the number by itself?

Prompt: Fill in z-score for record `NC(=O)NCC#Cc1ccc2c(c1)[C@]1(C(=O)N2)[C@H](C(=O)Nc2nc3ccccc3s2)[C@H]2C(=O)O[C@H](c3ccccc3)[C@H](c3ccccc3)N2[C@@H]1c1ccccc1OCCO`
Response: 0.0776

Prompt: Fill in z-score for record `C=CC[C@]1(C(=O)NCCCOC)N=C(c2ccc(OCCCO)cc2)O[C@H]1c1ccccc1CN=[N+]=[N-]`
Response: 1.49

Prompt: Fill in z-score for record `COC(=O)[C@H](Cc1ccccc1)N1CC2=C[C@@H](C3CC3)n3c(=O)n(C)c(=O)n3[C@H]2[C@@H]1[C@@H](O)Cc1ccccc1`
Response: 2.03

Prompt: Fill in z-score for record `Oc1ccc2cc[n+](Cc3sc4ccccc4c3Cl)cc2c1`
Response: -0.374

Prompt: Fill in z-score for record `CC(C)NC(=O)[C@@]1(C)c2ccccc2C(=O)N(Cc2cc(C(F)(F)F)cc(C(F)(F)F)c2)[C@H]1c1ccc(CO)cc1`
Response: 0.648

Prompt: Fill in z-score for record `C=CCOC(=O)[C@H]1[C@@H]2C(=O)O[C@@H](c3ccccc3)[C@@H](c3ccccc3)N2[C@@H](c2ccc(OCCOC(=O)[C@H]3C[C@H]4C(=O)N[C@@H](CCCC[N+](C)(C)C)C(=O)N4[C@H]3c3ccc(O)cc3)cc2)[C@]12C(=O)Nc1ccc(I)cc12`
Response: 0.415

Prompt: Fill in z-score for record `O=C1c2ccccc2[C@](Cc2ccccc2I)(C(=O)NCC(F)(F)F)[C@H](c2ccc(CO)cc2)N1Cc1ccccc1Cl`
Response: 0.506

Prompt: Fill in z-score for record `CC(C)NC(=O)[C@@]1(c2ccc([N+](=O)[O-])cc2)CC(=O)N(C2CCCCC2)[C@@H]1c1ccc(CO)cc1I`
Response: 1.04

Prompt: Fill in z-score for record `COCCOC(=O)N1C(=O)[C@@]2(c3ccccc31)[C@H](C(=O)N1CCc3cc(OC)c(OC)cc3C1)[C@H]1C(=O)O[C@H](c3ccccc3)[C@H](c3ccccc3)N1[C@@H]2c1ccc(OCCO)cc1`
Response: 0.685

Prompt: Fill in z-score for record `CCCC[C@@H]1C[C@H]1[C@@H](NC(=O)c1ccccc1)c1ccc(C(=O)OC)cc1`
Response: 0.576

Prompt: Fill in z-score for record `COC(=O)[C@@]1(Cc2ccccc2)N=C(c2ccc(OCCCO)cc2)O[C@H]1c1ccccc1`
Response: 1.45

Prompt: Fill in z-score for record `CCCC[C@@H]1C[C@H]1[C@@H](NC(=O)C(C)(C)C)c1ccc(C(F)(F)F)cc1`
Response: 0.201

Prompt: Fill in z-score for record COc1cc(C(O)C2C=CC3C(=O)NC(=O)C3N2Nc2ccccn2)cc(OC)c1OC (configuration not stated)
Response: 0.0467

Prompt: Fill in z-score for record `COc1ccc(CCNC(=O)[C@@]2(C)c3ccccc3C(=O)N(C(C)C)[C@H]2c2ccc(CO)cc2)cc1`
Response: 0.827

Prompt: Fill in z-score for record O=C1C2C=CC(C(O)Cc3ccccc3)N(n3cnnc3)C2C(=O)N1Cc1ccccc1 (configuration not stated)
Response: -0.0696

Prompt: Fill in z-score for record `C=CCNC(=O)[C@H]1[C@@H]2C(=O)O[C@@H](c3ccccc3)[C@@H](c3ccccc3)N2[C@@H](c2ccccc2OCCO)[C@]12C(=O)Nc1ccc(C#CCC(C(=O)OC)C(=O)OC)cc12`
Response: -0.0784

Prompt: Fill in z-score for record `C=C(C(=O)CC[C@@H](OC(=O)c1cccnc1)c1ccccc1OCCO)C(C)C`
Response: 8.13

###

# Tested on: Fibrinogen (Alexa647-labelled)
# TEST_DESCRIPTION: fibrinogen binders on compound microarrays, profiling panel, artefact control for SMM control-protein annotation, biochemical, small-molecule microarray, 635/667 nm fluorescence (AID 1131);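 also: z-score merges 667 nm fluorescence with per-spot signal-to-noise over triplicate slides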
# MEASUREMENT_PARAMETERS: fibrinogen-A647 binding fluorescence, higher = more signal
Can you tell me composite z-score for the items I'm about to list?
Could you keep your reply to the number by itself?

Prompt: Fill in composite z-score for record COc1cc(C(O)C2C=CC3C(=O)NC(=O)C3N2Nc2ccccn2)cc(OC)c1OC (stereo not drawn)
Response: 0.764

Prompt: Fill in composite z-score for record `CC[C@@H]1C=C(C(=O)O)[C@H](c2ccc(Br)cc2)N1S(=O)(=O)c1ccc(C)cc1`
Response: 0.886

Prompt: Fill in composite z-score for record CN1C(=O)C2C=CC(C(O)C3CC=CCC3)N(N(c3ccccc3)c3ccccc3)C2C1=O (stereo not drawn)
Response: 0.0963

Values from PubChem BioAssay
